# testProtocol: In vitro cytotoxic activity against of human colon tumor-8r cells in culture and LD50 was reported at the end of incubation period of 48 hours.
# Type: cell-based
# conditionParameters: read-out: LD50
assayEndpoint: CC50 at 48 h (µM)

compound="CCCCCCCC(=O)Oc1cccc2c1CC(C[Se]c1ccccc1)C(=O)O2 (configuration not stated)" experimentalresult=230
compound="CCC(=O)Oc1cccc2c1CC(C[Se]c1ccccc1)C(=O)O2 (configuration not stated)" experimentalresult=250
